Kindly supply the reported growth inhibition values for the records listed here.
# protocol details: inhibition of 3D7 malaria parasite growth – strain 3D7 (AID 2306);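 note: 0% = DMSO wells and 100% = chloroquine plus artemisinin control wells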
# condition: P. falciparum 3D7 erythrocytic growth, LDH absorbance, 72 h; at 2 µM; stronger effect = higher value
Answers are plain numbers, in %.

Would you please look over these solved cases?
> print(dat)
                                   molecule   measurement.type  numeric.result
1  COc1cc2nccc(Nc3ccc(OCc4ccc(NC(C)=O)cc4)cc3)c2cc1OC  growth inhibition             101
2  O=C(c1c(-c2[nH]c3ccccc3c2C(=O)C(F)(F)F)[nH]c2ccccc12)C(F)(F)F  growth inhibition              97
3  CN1CCN(Cc2ccc(-c3ccc4c(Nc5ccc(F)cc5Cl)ccnc4c3)o2)CC1  growth inhibition             100

I need growth inhibition for every entry listed below, if you could help.
1. COc1ccccc1CCNc1nc(C)cc(N[C@@H](Cc2ccccc2)C(=O)NCCCOC(C)C)n1
2. O=C(Nc1ccon1)c1cc(-c2cccnc2)nc2ccc(Br)cc12
3. CC(=O)N(Cc1nc(-c2cc(C(F)(F)F)cc(C(F)(F)F)c2)cs1)c1c(C)cccc1C
4. O=C(Nc1ccc(Oc2cccnc2)cc1)C1CCN(Cc2cc(Cl)ccc2O)CC1
5. COc1cccc(-c2ccc(C(=O)NCC3CCCN(Cc4cccc(C(F)(F)F)c4)C3)s2)c1 (centres undefined)
6. CC(C)Nc1cc(C(=O)N[C@@H](Cc2ccccc2)[C@H](O)CNC(C)(C)c2cccc(C(F)(F)F)c2)cc(N2CCCCS2(=O)=O)c1
7. O=C(Cn1c(SCc2cccc(F)c2F)cc(=O)c2ccccc21)N(CCN1CCCCC1)Cc1ccc(-c2ccc(C(F)(F)F)cc2)cc1

1: 99; 2: 99; 3: 100; 4: 83; 5: 85; 6: 98; 7: 99

I need growth inhibition for every entry listed below, if you could help.
1. CC(=O)N(C)/N=C/[C@H](CCc1ccccc1)NC(=O)[C@H](CC(C)C)NC(=O)c1cccc(OCCN2CCOCC2)c1
2. Cc1ccoc1C(=O)Nc1cccc(-c2cccc(-c3nc4ccc(C(F)(F)F)cc4[nH]3)c2)c1
3. Fc1ccc(-c2csc3ncnc(Cl)c23)cc1
4. CN(CCCCNC(=O)c1ccc(-c2ccccc2)cc1)C1CCc2c(O)cccc2C1 (centres undefined)
5. Cc1cccc(C)c1OC(=O)CSc1nnc(-c2ccccc2O)o1

1: 89; 2: 98; 3: 94; 4: 102; 5: 97

I need growth inhibition for every entry listed below, if you could help.
1. CCOc1cc(CC)ccc1C1CCN(CCCCNC(=O)c2ccc(NC(=O)c3ccc(Cl)cc3)cc2)CC1
2. Fc1cccc(Cn2ncc3cc(Nc4ncnc5sc(C#Cc6ncc[nH]6)cc45)ccc32)c1
3. NC(=NCCCc1ccccc1)c1cccc(C(N)=NCCCc2ccccc2)n1
4. O=C(O)c1ccc2nc(-c3ccccn3)c(-c3ccccn3)nc2c1

1. 101
2. 101
3. 98
4. 97
